Below: a set of entries, each annotated with reported mass density.
# details: 357.15 K; 101.33 kPa; Liquid; Vibrating tube method
Answer with a number only, understood to be in kg/m3.

[[record]]
compound = "CCn1cc[n+](C)c1.COS(=O)(=O)[O-] [1-ethyl-3-methylimidazolium methylsulfate]"
numeric_readout = 1246.68

[[record]]
compound = "CCCCCCCCOS(=O)(=O)[O-].CCn1cc[n+](C)c1 [1-ethyl-3-methylimidazolium octyl sulfate]"
numeric_readout = 1057.26

[[record]]
compound = "CCCCOS(=O)(=O)[O-].CC[n+]1ccn(C)c1 [3-ethyl-1-methylimidazolium butyl sulfate]"
numeric_readout = 1137.37

[[record]]
compound = "CCCCCCOS(=O)(=O)[O-].CC[n+]1ccn(C)c1 [3-ethyl-1-methyl-1H-imidazolium hexyl sulfate]"
numeric_readout = 1091.95


Next compound, please.
Inquiry: // query mass density value for entry CCn1cc[n+](C)c1.O=S(=O)([O-])O [1-ethyl-3-methylimidazolium hydrogen sulfate]
Reply text: 1330.2
